In this section we review reported MIC values for a set of compounds.
System: Staphylococcus aureus
Assay: Antibacterial activity against methicillin-resistant Staphylococcus aureus N315 after 24 hrs by microdilution method
Type: functional
Conditions: N315, 24 h

CC(=O)OC[C@H]1O[C@@H](Oc2c(-c3ccc(O)c(O)c3)oc3cc(O)cc(O)c3c2=O)[C@H](OC(C)=O)[C@@H](OC(C)=O)[C@H]1OC(C)=O	64 µg/mL
O=c1c(O[C@@H]2O[C@H](CO)[C@H](O)[C@H](O)[C@H]2O)c(-c2ccc(O)c(O)c2)oc2cc(O[C@@H]3O[C@H](CO)[C@H](O)[C@H](O)[C@H]3O)cc(O)c12	> 128 µg/mL
O=C(CCc1ccc(O)cc1)OC[C@H]1O[C@@H](Oc2c(-c3ccc(O)c(O)c3)oc3cc(O)cc(O)c3c2=O)[C@H](OC(=O)CCc2ccc(O)cc2)[C@@H](O)[C@H]1O	2 µg/mL
CC1O[C@H](Oc2c(-c3ccc(O)cc3)oc3cc(O)cc(O)c3c2=O)[C@@H](OC(=O)/C=C/c2ccc(O)cc2)[C@@H](O)[C@@H]1OC(=O)/C=C/c1ccc(O)cc1 (stereo not given in full)	1 µg/mL

Input line: Provide MIC value for the following compound: `O=C(Cc1ccc(F)cc1)O[C@H]1[C@H](Oc2c(-c3ccc(O)c(O)c3)oc3cc(O)cc(O)c3c2=O)O[C@H](CO)[C@@H](O)[C@@H]1OC(=O)Cc1ccc(F)cc1`
Output line: 1 µg/mL
